Reported percent response by item:
System: MEKK2 (MAP3K2) mutant PB1 domain binding MEK5, human
Test: mutant MEKK2 PB1-MEK5 binding signal retest – biochemical, single concentration, multiplex bead flow cytometry, confirmation (AID 1893);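 note: higher means compound restores mutant binding toward wildtype level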
Conditions: Alexa488-MEK5 binding to MEKK2 mutant, at 10 µM, active compounds read high
Out of some 5,900 compounds screened, about 120 (2%) were called active. These entries were drawn from the full list.
Give your result in % as a bare value.

Record excerpt, results attached:
>  <COMPOUND>
COC(=O)C1=NN(c2ccccc2)C2C(=O)N(c3ccccc3OC)C(=O)C12 (stereo unspecified)

>  <UNIT ABBREVIATION>
%

>  <percent response>
-1

$$$$
>  <COMPOUND>
O=C(NCCC1=CCCCC1)c1ccc(Cl)c([N+](=O)[O-])c1

>  <UNIT ABBREVIATION>
%

>  <percent response>
5

$$$$
>  <COMPOUND>
Cc1nc(N=C(N)N)nc2c(C)cccc12

>  <UNIT ABBREVIATION>
%

>  <percent response>
10

$$$$
>  <COMPOUND>
Cc1c(-c2ccccc2)cn2c1-c1ccc(C)n1CC2

>  <UNIT ABBREVIATION>
%

>  <percent response>
0

$$$$
>  <COMPOUND>
O=C(NCCN1CCOCC1)[C@H](Cc1ccccc1)N1C(=O)c2ccccc2C1=O

>  <UNIT ABBREVIATION>
%

>  <percent response>
2

$$$$
>  <COMPOUND>
Cc1cccc(CSc2nnc(C)c(=O)n2N)c1

>  <UNIT ABBREVIATION>
%

>  <percent response>
-2

$$$$
>  <COMPOUND>
CC(C)CC(=O)NC(=S)Nc1cc(C(=O)O)ccc1Cl

>  <UNIT ABBREVIATION>
%

>  <percent response>
-1

$$$$
>  <COMPOUND>
O=C(OCC1O[C@@H](OC(=O)c2cc(O)c(O)c(O)c2)[C@@H](OC(=O)c2cc(O)c(O)c(O)c2)[C@@H](OC(=O)c2cc(O)c(O)c(O)c2)[C@@H]1OC(=O)c1cc(O)c(O)c(O)c1)c1cc(O)c(O)c(O)c1 (stereo partly specified)

>  <UNIT ABBREVIATION>
%

>  <percent response>
-34

$$$$

Please find the next compound below.
Consider the compound `CCOC(=O)c1c(Cc2ccc(Cl)cc2)c[nH]c1C` and give its measured percent response. 0

====

Test system: MEKK2 (MAP3K2) mutant PB1 domain binding MEK5, human
Test: mutant MEKK2 PB1-MEK5 binding signal retest – biochemical, single concentration, multiplex bead flow cytometry, confirmation (AID 1893);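 note: higher means compound restores mutant binding toward wildtype level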
Conditions: Alexa488-MEK5 binding to MEKK2 mutant, at 10 µM, active compounds read high
Among all 5,900 compounds or so, about 120 (2%) were called active. Only a sample is shown.
VALUE TYPE: percent response (%)
Give your result in % as a bare value.

Record excerpt, results attached:
>  <COMPOUND>
O=C(NCCCN1CCN(c2ccc(F)cc2)CC1)Nc1ccc([N+](=O)[O-])cc1

>  <MEASURED>
26

$$$$
>  <COMPOUND>
COc1ccc(C2CC(=O)Nc3cc(C)c(C)cc32)c(OC)c1OC (stereo not given)

>  <MEASURED>
4

$$$$
>  <COMPOUND>
Cc1cc(C)nc(-n2ncc3c2CC(c2ccc(C(C)C)cc2)CC3=O)n1 (stereo not given)

>  <MEASURED>
0

$$$$
>  <COMPOUND>
C#CCOCCOCCOCCNc1nc(N2CCN(C(=O)[C@H](CCCCN)n3cc([C@@H](N)C(C)CC)nn3)CC2)nc(N2CCN(C(=O)[C@H](Cc3ccc(O)cc3)n3cc([C@@H](N)C(C)CC)nn3)CC2)n1 (stereo not given in full)

>  <MEASURED>
52

$$$$

Consider the compound Cc1ccc(S(=O)(=O)/N=S(\C)C(C)C)cc1 (stereo not given) and give its measured percent response. -3

Consider the compound COc1cc(C)nc(N2CCCC(C(=O)NCC(C)C)C2)n1 (stereo not given) and give its measured percent response. -2

Consider the compound `COc1ccc(N2CCN(Cc3nnc(-c4ccccc4)o3)CC2)cc1` and give its measured percent response. -5

Consider the compound `CSCC[C@H](NC(=O)CCCn1nnc2ccccc2c1=O)C(=O)O` and give its measured percent response. 1

Consider the compound `COC(=O)c1c(NC(=O)COC(=O)[C@@H](NS(=O)(=O)c2ccccc2)C(C)C)sc2c1CCC2` and give its measured percent response. -1

Consider the compound `O=C(O)CCCC(=O)Nc1ccc(Oc2cccc(C(F)(F)F)c2)nc1` and give its measured percent response. 4

Consider the compound `COc1ccc(CNC(=O)C2CCN(S(C)(=O)=O)CC2)cc1` and give its measured percent response. 4

Consider the compound `CCN1CCN(CCNC(=O)c2ccc(/C=C3/Sc4ccccc4N(Cc4cccc(C)c4)C3=O)cc2)CC1` and give its measured percent response. 79

Consider the compound `Cc1cccc(OCCNC(=O)CSc2ccc(C(F)(F)F)cc2[N+](=O)[O-])c1` and give its measured percent response. 2
